Tested on: Escherichia coli TOP10;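 note: peptides expressed intracellularly from a pBAD plasmid library in pooled LB shake-flask culture, induced with 0.3% L-arabinose, DNA abundance read by NGS, three biological replicates, DESeq2 with apeglm shrinkage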
assay: shrunken log2 fold change of peptide-encoding DNA abundance (4.5 h post-induction vs induction); higher = less antimicrobial activity (less host growth inhibition)
protocol conditions: time post-induction: 4.5 h; library: site-saturation at positions 5, 18, 19, 20
Output schema: class label derived from shrunken log2 fold change. Mapping: LOW (below -0.1), MEDIUM (-0.1 to below 0.3), HIGH (0.3 or more)

RRIRKRPPRLPRPRPRPHPTPRP: HIGH
RRIRPRPPRLPRPRPRPYCWPRP: LOW
RRIRARPPRLPRPRPRPDRCPRP: MEDIUM
RRIRFRPPRLPRPRPRPPESPRP: HIGH
RRIRSRPPRLPRPRPRPDAMPRP: HIGH
RRIRPRPPRLPRPRPRPIRWPRP: MEDIUM
RRIRARPPRLPRPRPRPGDHPRP: MEDIUM
RRIRDRPPRLPRPRPRPSYKPRP: LOW
RRIRKRPPRLPRPRPRPNHDPRP: MEDIUM
RRIRFRPPRLPRPRPRPDANPRP: LOW
RRIRSRPPRLPRPRPRPYCKPRP: LOW
RRIRFRPPRLPRPRPRPAEYPRP: LOW
RRIRDRPPRLPRPRPRPVFTPRP: MEDIUM
RRIRWRPPRLPRPRPRPTWLPRP: HIGH
RRIRVRPPRLPRPRPRPKYRPRP: MEDIUM

Recorded values, source the supplement of paper PMC9112550.
